Each item that follows carries a reported ddG of mutation (higher = less stable).
B1: Protein P-30, P22069 (parent)
chain: QDWLTFQKKHITNTRDVDCDNIMSTNLFHCKDKNTFIYSRPEPVKAICKGIIASKNVLTTSEFYLSDCNVTSRPCKYKLKKSTNKFCVTCENQAPVHFVGVGSC

# Variants of: B1
# experimentalParameters: Lithobates pipiens; pH 5.5; 20 °C; GdnHCl; Fluorescence; sodium acetate 100 mM; reversible: Yes; structure 1ONC; whole UniProt chain shown

{"mutantCode": "F28A", "ddG of mutation (higher = less stable)": "5 kcal/mol"}
{"mutantCode": "F28T", "ddG of mutation (higher = less stable)": "5.31 kcal/mol"}
{"mutantCode": "F36Y", "ddG of mutation (higher = less stable)": "4.66 kcal/mol"}
{"mutantCode": "C87A C104A", "ddG of mutation (higher = less stable)": "7.65 kcal/mol"}

Recorded values, source FireProtDB (doi:10.1021/bi0525223).
